Test System: T1, C-terminal domain of E. coli TolA (E. coli)
T1 sequence (P19934 whole entry, looked up): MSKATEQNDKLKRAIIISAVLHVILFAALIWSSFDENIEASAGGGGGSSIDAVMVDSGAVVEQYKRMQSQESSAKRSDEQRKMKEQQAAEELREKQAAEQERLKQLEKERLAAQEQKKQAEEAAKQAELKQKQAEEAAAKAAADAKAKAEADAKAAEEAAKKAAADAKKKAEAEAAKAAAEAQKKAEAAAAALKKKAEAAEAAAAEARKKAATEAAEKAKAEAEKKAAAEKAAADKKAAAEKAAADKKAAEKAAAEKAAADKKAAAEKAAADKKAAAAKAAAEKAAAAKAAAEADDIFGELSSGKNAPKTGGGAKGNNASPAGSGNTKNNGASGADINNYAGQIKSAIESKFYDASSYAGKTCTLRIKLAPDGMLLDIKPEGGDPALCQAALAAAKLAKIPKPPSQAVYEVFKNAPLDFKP
Measurement Description: ITC
No end group written: not given here.
Measured Quantity: pKd
Just so you know, pKd here is -log10 of the concentration in molar units; reply with that number alone.

*Q* Please look up its pKd: EVRIVIDSGVDS-NH2 [E. coli TolB peptide (residues 22-33)]
*A* 4.36
